Target: Estrogen receptor beta (Homo sapiens) (UniProt Q92731)
Sequence (Q92731 whole entry, looked up): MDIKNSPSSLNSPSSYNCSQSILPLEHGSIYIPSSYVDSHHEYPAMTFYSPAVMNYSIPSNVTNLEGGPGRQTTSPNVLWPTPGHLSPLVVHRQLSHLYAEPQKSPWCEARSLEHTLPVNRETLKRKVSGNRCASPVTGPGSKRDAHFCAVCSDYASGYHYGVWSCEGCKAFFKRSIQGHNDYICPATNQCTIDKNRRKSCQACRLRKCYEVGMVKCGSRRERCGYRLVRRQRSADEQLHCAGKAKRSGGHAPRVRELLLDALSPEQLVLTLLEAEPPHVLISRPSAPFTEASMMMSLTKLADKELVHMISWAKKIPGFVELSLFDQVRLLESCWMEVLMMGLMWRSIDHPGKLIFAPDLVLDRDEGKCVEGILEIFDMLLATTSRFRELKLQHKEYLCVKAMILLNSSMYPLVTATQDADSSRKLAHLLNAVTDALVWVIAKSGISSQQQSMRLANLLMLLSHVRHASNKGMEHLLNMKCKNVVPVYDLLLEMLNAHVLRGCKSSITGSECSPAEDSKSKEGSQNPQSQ
Experiment: displacement of fluorescent estrogen from ERbeta – cell-based, Cos7 ERbeta-GFP, flow cytometry, primary screen (AID 1210);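 also: 0% = DMSO vehicle wells and 100% = complete loss of labeled estradiol signal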
Conditions: fluorescent estrogen binding, ligand binding inhibition, at 0.1 µM, stronger effect = higher value
parameter: inhibition

1. Cc1ccc(C)c(/C(O)=C2/C(=O)C(=O)N(CCN3CCOCC3)C2c2ccco2)c1 (stereo not given); 17%
2. COc1ccc(Cl)cc1NC(=O)c1ocnc1C; 3%
3. COc1ccc(CCn2c(SCC(=O)Nc3cc(C)on3)nc3ccsc3c2=O)cc1OC; 18%
4. COc1cc(NC(=O)c2cccs2)c(C(=O)OCC(=O)NCc2ccco2)cc1OC; 47%
5. O=C(Nc1ccc2nn(-c3ccccc3)nc2c1)c1ccc2c(c1)OCO2; 14%

----------
Biological target: Estrogen receptor beta (Homo sapiens)
Assay: displacement of fluorescent estrogen from ERbeta – cell-based, Cos7 ERbeta-GFP, flow cytometry, primary screen (AID 1210);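 also: 0% = DMSO vehicle wells and 100% = complete loss of labeled estradiol signal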
Conditions: fluorescent estrogen binding, ligand binding inhibition, at 0.1 µM, stronger effect = higher value
The entries below are paired with their reported inhibition.
parameter: inhibition (%)

1) COc1cc(-c2nc3ccccn3c2/N=C/c2ccccc2)ccc1O; 9
2) Cc1ccc(-n2c(SCC(=O)NNC(=S)Nc3ccccc3)nc3ccccc3c2=O)cc1; 4
3) Cc1occc1C(=O)NCc1cccc(CNC(=O)c2ccoc2C)c1; 10
4) CC(=O)c1ccc(NC(=S)N2CCCC(CO)C2)cc1 (stereo unspecified); 13
5) COc1cc(C(=O)Nc2nnc(-c3sccc3C)s2)cc(OC)c1OC; 34
6) Cc1cc(C2(c3ccc(O)c(C)c3)OC(=O)c3ccccc32)ccc1O; 29

----------
# maps each entry to its inhibition
Target: Estrogen receptor beta (Homo sapiens)
Assay: displacement of fluorescent estrogen from ERbeta – cell-based, Cos7 ERbeta-GFP, flow cytometry, primary screen (AID 1210);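 also: 0% = DMSO vehicle wells and 100% = complete loss of labeled estradiol signal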
Settings: fluorescent estrogen binding, at 10 µM, stronger effect = higher value
parameter: inhibition (%)

1) O=C(CSc1ccc(Cl)cc1)c1ccco1; 14
2) CCC(Sc1ncnc2sc(C)c(C)c12)C(=O)OC (stereo unspecified); 27
3) CCOC(=O)COc1cc2oc(=O)c3c(c2cc1CC)CCCC3; 23
4) CCc1cc2c3c(c(=O)oc2cc1OC)CCCC3; 18
5) COc1cc(C2CC(=O)c3c(ccc4ccccc34)N2)ccc1O (stereo unspecified); 47
6) COc1ccc2c(c1)c(=O)oc1cc(OCC(=O)NC3CCCCC3)ccc12; 31
7) CC(C)C1Nc2ccc(S(N)(=O)=O)cc2C2C=CCC21 (stereo unspecified); 57
8) Cc1c(N=Cc2ccc(O)c(Br)c2)cccc1[N+](=O)[O-]; 33
9) O=C(Cc1cccs1)Nc1ccc(S(=O)(=O)N2CCCCC2)cc1; 37
10) COc1cc2c(c([N+](=O)[O-])c1)NC(c1ccc(Br)cc1)C1CC=CC21 (stereo unspecified); 8
11) C/C(N)=C(/C#N)C(=O)CSc1nnc(Nc2cccc(C)c2C)s1; 39

----------
Target: Estrogen receptor beta (Homo sapiens) (UniProt Q92731)
Assay: displacement of fluorescent estrogen from ERbeta – cell-based, Cos7 ERbeta-GFP, flow cytometry, primary screen (AID 1210);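 also: 0% = DMSO vehicle wells and 100% = complete loss of labeled estradiol signal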
Conditions: fluorescent estrogen binding, at 10 µM, stronger effect = higher value
Rule: inhibition of 30% or more gives 1; anything lower gives -1.

1. Oc1c(C=Nc2cccc3cccnc23)sc2ccccc12; 1
2. COc1ccccc1C(=O)Nc1nc(-c2cccs2)c(NC(C)=O)s1; 1
3. O=S(=O)(Nc1ncnc2sc3c(c12)CCC3)c1ccc2ccccc2c1; -1
4. Brc1cc2c(cc1C1Nc3ccccc3C3C=CCC31)OCO2 (stereo unspecified); -1
5. Nc1ccc2nc3n(c(=O)c2c1)CCC3; 1
6. COc1ccccc1-c1nnc2sc(-c3cnccn3)nn12; 1
7. COc1ccc(Oc2ccc3c(c2)c2c4n3CCNC4CCC2)cc1 (stereo unspecified); -1
8. CC(=O)c1ccc(N2Cc3ccccc3C2)cc1; -1
9. Cc1sc2ncnc(NCc3ccco3)c2c1C; 1
10. COc1cc(C(Nc2ccccn2)c2ccc3ccc(C)nc3c2O)cc(OC)c1O (stereo unspecified); -1
11. COCCCn1c(Cc2csc(Nc3cccc(Cl)c3)n2)nnc1SCC(=O)OC1CCCCC1; -1
12. O=C(Cn1ncc2c(=O)oc3ccccc3c21)Nc1nc2ccccc2s1; 1
13. COc1ccc(C2CC(c3c(-c4ccccc4)c4cc(Cl)ccc4[nH]c3=O)=NN2S(C)(=O)=O)cc1OC (stereo unspecified); -1
14. CCCCOC(=O)c1c(C)oc2ccc(NS(=O)(=O)c3ccc4c5c(cccc35)C(=O)N4)cc12; 1
15. Cc1ccc(Nc2nnc(SCC(=O)NCc3ccco3)s2)cc1; -1
16. Cc1ccc(-n2cc3c(c(C#N)c2=N)CC(C)(C)CC3=O)cc1; -1
17. COc1ccc(-c2nnc(SCC(=O)/C(C#N)=C(\C)N)o2)cc1; 1
18. c1coc(-c2nn3c(-c4ccco4)nnc3s2)c1; 1
19. Cc1cc(-c2ccccc2)nc2cc(C(N)=O)nn12; 1
20. O=C(Nc1ccc(N2CCCC2)cc1)C(c1ccccc1)c1ccccc1; 1
21. Cc1ccc(NC(=O)CSc2nnnn2-c2ccc3c(c2)OCO3)cc1C; 1
22. CCOc1ccccc1C1C(C#N)=C(N)Nc2onc(-c3ccccc3)c21 (stereo unspecified); -1
23. Cc1ccc(C)c(SCC(=O)OCC(=O)c2ccco2)c1; 1
24. COc1ccc2c(c1)c1c3n2CCNC3CCC1 (stereo unspecified); -1
25. O=C(Nc1ccc2oc(-c3ccc4ccccc4c3)nc2c1)c1cccs1; 1
26. O=C(Nc1cnn(C23CC4CC(CC(C4)C2)C3)c1)c1cnn2c(C(F)(F)F)cc(-c3ccco3)nc12; -1
27. CCN(c1ccccc1)S(=O)(=O)c1cc(C(=O)O)ccc1C; -1
28. Cc1ccc2c(Cl)cc(Cl)c(OCC(=O)NCc3ccco3)c2n1; -1
29. CC1(C)CC(=O)C2=C(C1)OC(c1ccc(O)cc1)C(C#N)=C2N (stereo unspecified); 1
30. Cn1cccc1/C=C1\SC(=O)N(c2ccc(O)cc2)C1=O; 1
31. Cc1ccc(OCc2ccoc2C(=O)O)cc1C; -1
32. CCOc1cc2c(cc1OCC)C(C(CC)CC)NCC2 (stereo unspecified); -1
33. C=CCSC1=N/C(=C\C=C\c2ccco2)C(=O)S1; -1
34. Cc1ccc2c(c1)c(=O)c1c3n2CCN(C(=O)CCl)C3CC1 (stereo unspecified); 1
35. C=CCn1c(COc2cccc(C)c2)nnc1SCC(=O)NC(=O)NCc1ccco1; 1
36. Cc1ccc(-n2nnnc2SCC(=O)Nc2ccc3c(c2)COC3=O)cc1C; -1
37. CCOC(=O)C1=C(O)/C(=C\c2ccc(CNC(=O)C(=O)Nc3ccccc3)o2)N=C1C; -1
38. Cc1ccc(S(=O)(=O)N2CCCCC2)cc1C(=O)Nc1ncn[nH]1; -1
39. Cc1ccc(S(=O)(=O)NCCn2c(C)cc3ccccc32)cc1; -1
40. CC1(C)OC(C)(C)/C(=C/Nc2ccc(O)cc2)C1=O; 1
41. COc1ccc(C2CC(=O)Nc3ccccc3S2(=O)=O)cc1OC (stereo unspecified); -1
42. Oc1ccccc1-c1nnc(SCCN2CCOCC2)n1Cc1ccccc1; 1
43. C[C@]12CC[C@@H]3c4ccc(O)cc4[C@@H](O)C[C@H]3[C@@H]1CC[C@@H]2O; 1
44. CCNC(=O)N1c2ccc(OCC)cc2C(C)=CC1(C)C; -1
